IC50 for UniProtKB P35968, merged from several publications.

Exam item: Param readout= IC50; system= UniProtKB P35968; entry= `CC(C)n1cc(C(=O)Nc2ccc(Oc3ccnc4cc(OCCO)c5c(c34)OCCO5)c(F)c2)c(=O)n(-c2ccc(F)cc2)c1=O` ; returns value.
Marked response: 500 to 5000 nM

Exam item: GET /values?readout=IC50&system=UniProtKB P35968&item= `C=CC(=O)Nc1cc2c(Nc3ccc(Br)c(Cl)c3F)ncnc2cc1OCCNC(=O)CC`
Marked response: 106 nM

Exam item: Report IC50 for `CN(C(=O)Nc1ccc(Cl)c(C(F)(F)F)c1)c1ccc(Oc2ccnc(-c3cnn(C)c3)c2)cc1` tested on UniProtKB P35968.
Marked response: ≤ 10000 nM

Exam item: Value wanted: IC50 (UniProtKB P35968) of entry `COc1cccc(C(=O)c2c[nH]c3ncc(-c4cccc(C(N)=O)c4)cc23)c1`
Marked response: ≤ 10000 nM

Exam item: Any idea what IC50 came out for `COc1cc2nccc(Oc3ccc(NC(=S)NC(C)C)c(Cl)c3)c2cc1C(N)=O` on UniProtKB P35968?
Marked response: < 50 nM

Exam item: Report IC50 for `COCCCNc1nccn2nc(Nc3cc(C)cc(C)c3)nc12` tested on UniProtKB P35968.
Marked response: 3000 to 50000 nM

###

Record set: IC50 | Vascular endothelial growth factor receptor 2 (Homo sapiens) | literature, multiple sources.

Example cases with answers are listed next.
O=C(Nc1ccc(C(=O)c2ccc3ncc(N4CCNCC4)nc3c2)cc1)Nc1ccc(Cl)c(C(F)(F)F)c1 > 100 nM
COc1ccc(CN2CCN(c3ccc(-c4cc(-c5cnn(C)c5)cn5ncc(C(N)=O)c45)cn3)CC2)cn1 ≥ 5000 nM
CNc1c(Oc2ccc(NC(=O)Nc3ccc(Cl)c(C(F)(F)F)c3)cc2)ccnc1-c1cnn(C)c1 656 nM
COc1cnc2[nH]cc(Cc3c(F)ccc(OCC(F)(F)F)c3Cl)c2c1 ≤ 10000 nM
CCOc1ccn(-c2ccc(F)cc2)c(=O)c1C(=O)Nc1ccc(Oc2ccnc3cc(OCCCC#N)c4c(c23)OCCO4)c(F)c1 ≤ 50 nM
COc1cc2nccc(Oc3ccc(NC(=S)N4CCC4)c(Cl)c3)c2cc1C(N)=O 50 to 200 nM

Exam item: Missing value: IC50, Vascular endothelial growth factor receptor 2 (Homo sapiens), entry `Cc1cnc2[nH]cc(C(=O)c3cccc(NS(=O)(=O)C4CCCCC4)c3)c2c1` . Fill in?
Marked response: ≤ 10000 nM

Exam item: I'm curious: which IC50 was measured for `O=C(Nc1cc(F)cc(Oc2cc(NC(=O)C3CC3)ncn2)c1)Nc1ccc(F)c(C(F)(F)F)c1` tested on Vascular endothelial growth factor receptor 2 (Homo sapiens)?
Marked response: 62.8 nM

Exam item: API: value(readout= IC50, system= Vascular endothelial growth factor receptor 2 (Homo sapiens), query= `COc1ncc(-c2cnc3[nH]cc(C(=O)c4c(F)ccc(NS(=O)(=O)C5CCCC5)c4F)c3c2)cn1` )
Marked response: ≤ 10000 nM

###

pIC50: −log10 of the molar value.
The compounds below each have a reported pIC50 tested on Vascular endothelial growth factor receptor 2 (Homo sapiens); the values come from various publications.

Solved cases below.
compound	pIC50
COc1cc2nccc(Oc3c(F)cc(NC(=O)NC4CC4)c(Cl)c3F)c2cc1C(=O)NC[C@@H](O)CO	> 8.30
Cc1[nH]c2c(c1C(=O)NCCc1ccccn1)CCC/C2=C1/C(=O)Nc2ccc(F)cc21	7.77
COc1cc(OC)cc(N(CC2CC2)c2ccc3ncc(N4CCOCC4)nc3c2)c1	5.18
O=C(c1ccccc1F)c1c[nH]c2nccc(-c3ccccc3F)c12	≥ 5.00
NCCNc1nccn2nc(Nc3ccccc3)nc12	4.30 to 5.52

Exam item: What reported pIC50 corresponds to `C=CC(=O)Nc1cc2c(Nc3ccc(Br)cc3F)ncnc2cc1OCCNC(=O)CN1CCCC1` on Vascular endothelial growth factor receptor 2 (Homo sapiens)?
Marked response: 6.70

Exam item: Look up pIC50 with Vascular endothelial growth factor receptor 2 (Homo sapiens) for this compound: `C=CC(=O)Nc1cc2c(Nc3ccc(Br)c(Cl)c3F)ncnc2cc1OCCNC(=O)CCO`
Marked response: 7.06
